ASSAYED_TARGET: CYP3A4 (Homo sapiens)
Sequence (P08684 whole entry): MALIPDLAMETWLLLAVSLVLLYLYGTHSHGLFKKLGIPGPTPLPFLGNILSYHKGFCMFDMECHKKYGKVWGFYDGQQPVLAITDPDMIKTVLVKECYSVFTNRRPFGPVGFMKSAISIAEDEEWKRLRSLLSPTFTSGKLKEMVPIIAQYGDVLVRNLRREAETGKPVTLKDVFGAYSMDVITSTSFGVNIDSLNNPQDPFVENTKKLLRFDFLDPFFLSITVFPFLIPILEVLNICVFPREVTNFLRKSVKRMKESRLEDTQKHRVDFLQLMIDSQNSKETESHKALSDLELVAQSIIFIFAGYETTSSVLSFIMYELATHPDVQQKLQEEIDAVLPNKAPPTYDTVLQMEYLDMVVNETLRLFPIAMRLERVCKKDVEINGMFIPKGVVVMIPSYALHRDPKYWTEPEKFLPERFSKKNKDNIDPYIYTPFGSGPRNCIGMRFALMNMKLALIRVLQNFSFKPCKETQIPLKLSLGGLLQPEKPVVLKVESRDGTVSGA
PROTOCOL: Metabolic stability of in DMSO solution assessed as human CYP3A4-mediated drug degdaradtion by measuring compound remaining at 1 uM after 1 hr in presence of human CYP3A4 and NADPH
Assay type: ADME
ASSAY_CONTEXT: human CYP3A4 enzyme, read-out: Stability
Kindly supply the reported remaining at 1 h, 1 µM values for the records listed here.

Here is how some compounds turned out for remaining at 1 h, 1 µM.
{"columns": ["SMILES_DATA", "remaining at 1 h, 1 µM"],
 "data": [
  ["CC(=O)N1CCC(c2nc(NCc3ccc(F)cc3)ncc2-c2cc(C)no2)CC1", "< 20%"],
  ["Cc1cc(-c2cnc(NC(C)C)nc2C2CCN(C(=O)c3ccc(C)s3)CC2)on1", "< 20%"]
]}

Here's the next entry for you.
QUERY: Please look up its remaining at 1 h, 1 µM: CC(=O)N1CCC(c2nc(NCc3cccnc3)ncc2-c2cc(C)no2)CC1
RESULT: < 20%
